// provenance: PubChem BioAssay AID623937

# target-entity: RecBCD enzyme subunit RecC (Escherichia coli (strain K12)) + RecBCD enzyme subunit RecB (Escherichia coli (strain K12)) (UniProt P07648+P08394)
# Sequence (P07648 whole entry, looked up): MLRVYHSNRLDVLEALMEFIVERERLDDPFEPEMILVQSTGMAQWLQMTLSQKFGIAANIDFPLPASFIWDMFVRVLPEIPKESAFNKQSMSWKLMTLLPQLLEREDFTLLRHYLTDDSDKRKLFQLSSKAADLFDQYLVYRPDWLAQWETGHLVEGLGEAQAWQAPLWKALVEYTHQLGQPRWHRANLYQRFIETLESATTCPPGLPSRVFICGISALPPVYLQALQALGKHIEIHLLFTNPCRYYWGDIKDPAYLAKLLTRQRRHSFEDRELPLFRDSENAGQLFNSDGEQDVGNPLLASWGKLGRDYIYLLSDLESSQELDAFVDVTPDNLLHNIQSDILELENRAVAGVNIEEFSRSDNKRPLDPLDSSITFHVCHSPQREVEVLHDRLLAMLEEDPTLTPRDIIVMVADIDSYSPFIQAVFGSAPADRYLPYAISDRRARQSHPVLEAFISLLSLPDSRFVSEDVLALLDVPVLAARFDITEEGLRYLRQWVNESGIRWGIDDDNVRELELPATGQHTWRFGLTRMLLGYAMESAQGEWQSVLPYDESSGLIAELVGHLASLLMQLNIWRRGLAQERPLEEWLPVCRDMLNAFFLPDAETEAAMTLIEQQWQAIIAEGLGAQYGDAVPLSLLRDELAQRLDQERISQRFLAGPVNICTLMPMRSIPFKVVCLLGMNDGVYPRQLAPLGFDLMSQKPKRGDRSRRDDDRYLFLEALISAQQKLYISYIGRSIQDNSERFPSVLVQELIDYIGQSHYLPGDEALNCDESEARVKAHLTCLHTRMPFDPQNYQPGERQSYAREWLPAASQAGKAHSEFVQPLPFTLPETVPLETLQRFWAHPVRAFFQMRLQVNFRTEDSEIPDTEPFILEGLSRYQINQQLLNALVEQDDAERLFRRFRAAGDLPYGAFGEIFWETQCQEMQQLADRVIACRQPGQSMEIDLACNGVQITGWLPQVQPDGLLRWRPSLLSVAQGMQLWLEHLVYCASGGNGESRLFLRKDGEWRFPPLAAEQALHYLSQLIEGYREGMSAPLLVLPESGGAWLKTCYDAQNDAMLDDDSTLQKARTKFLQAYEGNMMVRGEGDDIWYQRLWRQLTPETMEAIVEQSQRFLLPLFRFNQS
# Sequence (P08394 whole entry, looked up): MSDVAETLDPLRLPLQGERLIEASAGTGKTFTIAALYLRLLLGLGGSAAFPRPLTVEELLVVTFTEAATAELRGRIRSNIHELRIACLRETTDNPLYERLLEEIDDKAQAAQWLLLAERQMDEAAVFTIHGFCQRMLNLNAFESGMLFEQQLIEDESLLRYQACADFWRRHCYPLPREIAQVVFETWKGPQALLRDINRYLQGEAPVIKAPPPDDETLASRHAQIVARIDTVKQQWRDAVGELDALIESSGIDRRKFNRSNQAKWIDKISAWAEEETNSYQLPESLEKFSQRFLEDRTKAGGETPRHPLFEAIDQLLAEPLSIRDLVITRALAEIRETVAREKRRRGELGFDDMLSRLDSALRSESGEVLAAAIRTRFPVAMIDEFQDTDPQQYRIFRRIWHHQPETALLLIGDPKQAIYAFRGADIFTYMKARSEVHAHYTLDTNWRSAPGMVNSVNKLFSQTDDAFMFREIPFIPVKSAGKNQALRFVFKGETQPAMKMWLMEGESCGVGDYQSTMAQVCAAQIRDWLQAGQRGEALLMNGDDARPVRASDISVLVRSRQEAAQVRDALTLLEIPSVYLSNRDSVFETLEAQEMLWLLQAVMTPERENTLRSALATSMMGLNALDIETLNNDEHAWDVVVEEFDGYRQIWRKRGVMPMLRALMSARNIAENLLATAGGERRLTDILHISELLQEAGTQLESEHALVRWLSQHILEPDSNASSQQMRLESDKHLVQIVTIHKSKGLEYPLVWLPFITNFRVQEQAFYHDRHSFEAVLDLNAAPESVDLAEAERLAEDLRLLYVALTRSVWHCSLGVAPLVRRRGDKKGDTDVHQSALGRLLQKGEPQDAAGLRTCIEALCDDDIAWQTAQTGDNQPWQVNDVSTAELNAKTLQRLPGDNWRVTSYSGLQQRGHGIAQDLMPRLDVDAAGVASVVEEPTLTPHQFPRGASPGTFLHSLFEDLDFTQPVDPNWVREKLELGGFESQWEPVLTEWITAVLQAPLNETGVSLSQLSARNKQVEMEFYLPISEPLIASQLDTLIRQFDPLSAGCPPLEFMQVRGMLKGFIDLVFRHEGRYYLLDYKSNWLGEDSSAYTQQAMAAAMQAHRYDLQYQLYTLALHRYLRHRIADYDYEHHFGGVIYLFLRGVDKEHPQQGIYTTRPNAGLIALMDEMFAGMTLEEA
# protocol-description: RecBCD helicase and Chi cutting inhibitors, late-stage follow-up, counter-screen for AddAB inhibitor project, biochemical, radioactive gel readout, single concentration (AID 623937)
# condition-details: purified RecBCD, 32P DNA gel autoradiography, at 50 µM
Calls of active or inactive are those of the source.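 The calls were made as follows: active = Chi band cutting by RecBCD reduced more than twofold versus the solvent-only control; inactive = reduction of twofold or less versus solvent-only control.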
Please reply with one of these outcomes: active, inactive

Look over these answered cases.
compound	label-value
CCn1cc(C(=O)O)c(=O)c2cnc(N3CCN(C(=S)NC)CC3)nc21	inactive
CCn1cc(C(=O)O)c(=O)c2cnc(N3CCN(C(=S)NC4CC5CCC4C5)CC3)nc21 (stereo not given)	active
CCn1cc(C(=O)O)c(=O)c2cnc(N3CCN(C(=S)Nc4cccc(C(F)(F)F)c4)CC3)nc21	inactive
N#Cc1c(NC(=O)c2cccc(F)c2)sc2c1CCCC2	active
CC1CCc2c(sc(NC(=O)c3ccc([N+](=O)[O-])o3)c2C#N)C1 (stereo not given)	inactive
CCn1cc(C(=O)O)c(=O)c2cnc(N3CCN(C(=S)NC(=O)c4ccccc4Cl)CC3)nc21	inactive

So what was the verdict on N#Cc1c(NC(=O)c2cnccn2)sc2c1CCCC2 in this test? inactive

So what was the verdict on N#Cc1c(NC(=O)c2ccccc2C(=O)O)sc2c1CCCC2 in this test? active

So what was the verdict on CCn1cc(C(=O)O)c(=O)c2cnc(N3CCN(C(=S)NC(C)c4ccccc4)CC3)nc21 (stereo not given) in this test? inactive

So what was the verdict on Cc1ccc(C(=O)Nc2sc3c(c2C#N)CCC3)o1 in this test? inactive

* * *

# target-entity: RecBCD enzyme subunit RecC (Escherichia coli (strain K12)) + RecBCD enzyme subunit RecB (Escherichia coli (strain K12)) (UniProt P07648+P08394)
# protocol-description: RecBCD helicase and Chi cutting inhibitors, late-stage follow-up, counter-screen for AddAB inhibitor project, biochemical, radioactive gel readout, single concentration (AID 623937)
# condition-details: purified RecBCD, 32P DNA gel autoradiography, at 50 µM
The source made the active and inactive calls.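 Rule for the calls: active = Chi band cutting by RecBCD reduced more than twofold versus the solvent-only control; inactive = reduction of twofold or less versus solvent-only control.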
Please reply with one of these outcomes: active, inactive

Look over these answered cases.
chem-smiles	label-value
Cc1cccnc1NC(=O)c1ccc([N+](=O)[O-])o1	inactive
N#Cc1c(NC(=O)c2ccco2)sc2c1CCC2	inactive
CCn1cc(C(=O)O)c(=O)c2cnc(N3CCN(C(=S)NC(=O)c4cccc(C)c4)CC3)nc21	active

So what was the verdict on O=C(Nc1cccc(NC(=O)c2ccccc2Cl)c1)c1ccc([N+](=O)[O-])o1 in this test? active
